Target: Der-f allergens (Dermatophagoides farinae, UniProt P16311)
Construct: Dust is collected from Hoover™ vacuum cleaner bags and passed through a series of sieves down to 63 microns; from tissue; host or cells: house dust from vacuum cleaner bags, sieved to 63 microns
Sequence (P16311 99-321): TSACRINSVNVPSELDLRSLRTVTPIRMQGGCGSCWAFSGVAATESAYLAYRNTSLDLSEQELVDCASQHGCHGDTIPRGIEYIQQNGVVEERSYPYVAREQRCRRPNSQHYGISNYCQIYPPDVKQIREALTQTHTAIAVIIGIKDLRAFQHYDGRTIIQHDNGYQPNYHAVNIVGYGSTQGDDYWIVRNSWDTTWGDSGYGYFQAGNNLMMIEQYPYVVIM
Format: biochemical
Details: Der-f; compared with vacuuming only, no deactivant; 2% deactivant (AgCl composite 0.05%, immobilised tannic acid 1%, hinokitol 0.5%)
measured-quantity: Amount of active Allergen remaining after deactivant treatment
I only need the number, thanks.

# compound, result-number
rows = [
    ("O=C([O-])CS.[K+] [Potassium thioglycolate, potassium thioglycolate]", 3092),
    ("O=C1O[C@H]([C@@H](O)CO)C(O)=C1O", 1438),
    ("CCCCC(CC)COC(=O)CC(C(=O)OCC(CC)CCCC)S(=O)(=O)[O-].[Na+] (stereo not shown)", 4494),
    ("CCCCCCCCCCCCCCCC[N+](C)(C)C.[Cl-] [hexadecyltrimethylammonium chloride]", 2863),
    ("CCCOCC(C)O (stereo not shown)", 1233),
    ("CC(C)c1cccc(=O)c(O)c1", 2058),
]

Next, consider the following compound.
Data request: Supply reported Amount of active Allergen remaining after deactivant treatment belonging to this compound: N=C(NCCCCCCNC(=N)NC(=N)Nc1ccc(Cl)cc1)NC(=N)Nc1ccc(Cl)cc1
Data returned: 2281
